# KD1 (2:1 heterogeneous ligand model) annotations
Target: filamentous actin (F-actin) from rabbit skeletal muscle (rabbit, UniProt P68135 1-377)
Assay: BLI; F-actin immobilised on Streptavidin (SA) biosensors through LAbio peptide; αcat-ABD in solution at various concentrations; 26 °C, Octet384; 2 mM Tris-HCl pH 8.0, 0.2 mM ATP, 0.5 mM DTT, 0.1 mM CaCl2, 50 mM KCl, 2 mM MgCl2, 0.1% BSA, 0.02% Tween-20; 2:1 heterogeneous ligand model
Details: both partners purified
Dear colleague, please return just the value in µM, with no unit written.

Below: 5 binders and their reported KD1 (2:1 heterogeneous ligand model).
αEcat-ABD 3A (L785A, I792A and V796A together) (domain or fragment, source: E. coli BL21-CodonPlus, purified (glutathione-sepharose, thrombin cleavage, Superdex 75); not shown: GST, N-terminal, cleaved) SRTSVQTEDDQLIAGQSARAIMAQLPQEQKAKIAEQVASFQEEKSKLDAEVSKWDDSGNDIIVLAKQMCMIMMEMTDFTRGKGPLKNTSDVISAAKKIAEAGSRMDKLGRTIADHCPDSACKQDLLAYLQRIAAYCHQLNACSKAKAEVQNLGGELVVSGVDSAMSLIQAAKNLMNAVVQTVKASYVASTKYQKSQGMASLNLPAVSWKMKAPEKKPLVKREKQDETQTKIKRASQKKHVNPVQALSEFKAMDSI: 38.4
αEcat-ABD I792A (domain or fragment, source: E. coli BL21-CodonPlus, purified (glutathione-sepharose, thrombin cleavage, Superdex 75); not shown: GST, N-terminal, cleaved) SRTSVQTEDDQLIAGQSARAIMAQLPQEQKAKIAEQVASFQEEKSKLDAEVSKWDDSGNDIIVLAKQMCMIMMEMTDFTRGKGPLKNTSDVISAAKKIAEAGSRMDKLGRTIADHCPDSACKQDLLAYLQRIALYCHQLNACSKVKAEVQNLGGELVVSGVDSAMSLIQAAKNLMNAVVQTVKASYVASTKYQKSQGMASLNLPAVSWKMKAPEKKPLVKREKQDETQTKIKRASQKKHVNPVQALSEFKAMDSI: 4
αEcat-ABD V796A (domain or fragment, source: E. coli BL21-CodonPlus, purified (glutathione-sepharose, thrombin cleavage, Superdex 75); not shown: GST, N-terminal, cleaved) SRTSVQTEDDQLIAGQSARAIMAQLPQEQKAKIAEQVASFQEEKSKLDAEVSKWDDSGNDIIVLAKQMCMIMMEMTDFTRGKGPLKNTSDVISAAKKIAEAGSRMDKLGRTIADHCPDSACKQDLLAYLQRIALYCHQLNICSKAKAEVQNLGGELVVSGVDSAMSLIQAAKNLMNAVVQTVKASYVASTKYQKSQGMASLNLPAVSWKMKAPEKKPLVKREKQDETQTKIKRASQKKHVNPVQALSEFKAMDSI: 3.7
αE-catenin actin-binding domain, wild type (αEcat-ABD-WT; residues 652-906) (domain or fragment, source: E. coli BL21-CodonPlus, purified (glutathione-sepharose, thrombin cleavage, Superdex 75); not shown: GST, N-terminal, cleaved) SRTSVQTEDDQLIAGQSARAIMAQLPQEQKAKIAEQVASFQEEKSKLDAEVSKWDDSGNDIIVLAKQMCMIMMEMTDFTRGKGPLKNTSDVISAAKKIAEAGSRMDKLGRTIADHCPDSACKQDLLAYLQRIALYCHQLNICSKVKAEVQNLGGELVVSGVDSAMSLIQAAKNLMNAVVQTVKASYVASTKYQKSQGMASLNLPAVSWKMKAPEKKPLVKREKQDETQTKIKRASQKKHVNPVQALSEFKAMDSI: 2
αEcat-ABD V714A (domain or fragment, source: E. coli BL21-CodonPlus, purified (glutathione-sepharose, thrombin cleavage, Superdex 75); not shown: GST, N-terminal, cleaved) SRTSVQTEDDQLIAGQSARAIMAQLPQEQKAKIAEQVASFQEEKSKLDAEVSKWDDSGNDIIALAKQMCMIMMEMTDFTRGKGPLKNTSDVISAAKKIAEAGSRMDKLGRTIADHCPDSACKQDLLAYLQRIALYCHQLNICSKVKAEVQNLGGELVVSGVDSAMSLIQAAKNLMNAVVQTVKASYVASTKYQKSQGMASLNLPAVSWKMKAPEKKPLVKREKQDETQTKIKRASQKKHVNPVQALSEFKAMDSI: 2.6

Now examine the next entry.
Query string: For the binder αEcat-ABD L785A (domain or fragment, source: E. coli BL21-CodonPlus, purified (glutathione-sepharose, thrombin cleavage, Superdex 75); not shown: GST, N-terminal, cleaved) SRTSVQTEDDQLIAGQSARAIMAQLPQEQKAKIAEQVASFQEEKSKLDAEVSKWDDSGNDIIVLAKQMCMIMMEMTDFTRGKGPLKNTSDVISAAKKIAEAGSRMDKLGRTIADHCPDSACKQDLLAYLQRIAAYCHQLNICSKVKAEVQNLGGELVVSGVDSAMSLIQAAKNLMNAVVQTVKASYVASTKYQKSQGMASLNLPAVSWKMKAPEKKPLVKREKQDETQTKIKRASQKKHVNPVQALSEFKAMDSI , what KD1 (2:1 heterogeneous ligand model) is on record?
Result string: 27.8
